- Test system: 945468-187-T-J2-PDC spheroids viability
- method-notes: Anticancer human tumor 945468-187-T-J2-PDC patient-derived rectal carcinoma cell line growth inhibition [PI3K]
- assay-context: curve of first compound; second compound 0.316 µM; spheroids with HUVEC and MSC
pIC50: −log10 of the molar value.

{"molecule": "CC(C)n1nc(-c2ccc3oc(N)nc3c2)c2c(N)ncnc21 + COc1c(OCCCN2CCOCC2)ccc2c3n(c(=NC(=O)c4cnc(N)nc4)nc12)CCN3", "pIC50": "> 9.50"}
{"molecule": "Cn1cnc2c(F)c(Nc3ccc(Br)cc3Cl)c(C(=O)NOCCO)cc21 + Cc1nc(NC(=O)N2CCCC2C(N)=O)sc1-c1ccnc(C(C)(C)C(F)(F)F)c1", "pIC50": "< 5.52"}
{"molecule": "CC(=O)c1c(C)c2cnc(Nc3ccc(N4CCNCC4)cn3)nc2n(C2CCCC2)c1=O + CC(Nc1ccc2c(c1)OCCn1cc(N3C(=O)OCC3C(F)F)nc1-2)C(N)=O", "pIC50": "< 7.00"}
{"molecule": "C[C@@H](NC(=O)c1ncnc(N)c1Cl)c1ncc(C(=O)Nc2cc(C(F)(F)F)c(Cl)cn2)s1 + CC(Nc1ccc2c(c1)OCCn1cc(N3C(=O)OCC3C(F)F)nc1-2)C(N)=O", "pIC50": "< 5.00"}
{"molecule": "C=CC(=O)N1CCN(c2nc(=O)n(-c3c(C)ccnc3C(C)C)c3nc(-c4c(O)cccc4F)c(F)cc23)C(C)C1 (stereo unspecified) + Cc1nc(NC(=O)N2CCCC2C(N)=O)sc1-c1ccnc(C(C)(C)C(F)(F)F)c1", "pIC50": "< 5.00"}
{"molecule": "Cn1nccc1Nc1nccc(-c2ccn(C(CO)c3ccc(Cl)c(F)c3)c(=O)c2)n1 (stereo unspecified) + COc1c(OCCCN2CCOCC2)ccc2c3n(c(=NC(=O)c4cnc(N)nc4)nc12)CCN3", "pIC50": "> 7.50"}

---

viability, T/C values for the compounds below.
- System: 945468-187-T-J2-PDC spheroids viability
- method-notes: Anticancer human tumor 945468-187-T-J2-PDC cell line growth inhibition [PI3K];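 also: spheroids exposed to compounds for seven days before reading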
- assay-context: second compound 3.16 µM; first compound 0.0316 µM; stronger effect = lower value; spheroids with HUVEC and MSC
assay-metric: viability, T/C

{"compound": "C[C@@H](NC(=O)c1ncnc(N)c1Cl)c1ncc(C(=O)Nc2cc(C(F)(F)F)c(Cl)cn2)s1 + Cc1nc(NC(=O)N2CCCC2C(N)=O)sc1-c1ccnc(C(C)(C)C(F)(F)F)c1", "reported-result": "90.8%"}
{"compound": "CC1(C)CCC(Nc2ncc(C(F)(F)F)c(-c3c[nH]c4c(P(C)(C)=O)c(C#N)ccc34)n2)CN1 (stereo not given) + CC(Nc1ncnc2nc[nH]c12)c1cc2cccc(Cl)c2c(=O)n1-c1ccccc1", "reported-result": "92.4%"}
{"compound": "CCN1CCN(Cc2ccc(Nc3ncc(F)c(-c4cc(F)c5nc(C)n(C(C)C)c5c4)n3)nc2)CC1 + Cc1nc(NC(=O)N2CCCC2C(N)=O)sc1-c1ccnc(C(C)(C)C(F)(F)F)c1", "reported-result": "111%"}
{"compound": "C[C@@H](NC(=O)c1ncnc(N)c1Cl)c1ncc(C(=O)Nc2cc(C(F)(F)F)c(Cl)cn2)s1 + CC(Nc1ncnc2nc[nH]c12)c1cc2cccc(Cl)c2c(=O)n1-c1ccccc1", "reported-result": "103%"}
{"compound": "CC(Cn1ccc(-c2ccc(C#N)c(Cl)c2)n1)NC(=O)c1cc(C(C)O)[nH]n1 (stereo not given) + Cc1nc(NC(=O)N2CCCC2C(N)=O)sc1-c1ccnc(C(C)(C)C(F)(F)F)c1", "reported-result": "81%"}
